ASSAY SUMMARY: Intrinsic clearance in CD1 rat liver microsomes at 1 uM after 30 mins
Format: ADME, Microsome
ASSAY CONDITIONS: read-out: CLH
PROPERTY LABEL: microsomal CLint at 1 µM (µL/min/mg)

{"columns": ["COMPOUND", "microsomal CLint at 1 µM [µL/min/mg]"],
 "data": [
  ["COc1ccc(NC(=O)N2CCc3sccc3C2c2ccc(C(F)(F)F)cc2)cc1 (stereo not drawn)", 203],
  ["O=C(Nc1ccc(F)cc1)N1CCc2occc2C1c1ccc(C(F)(F)F)cc1 (stereo not drawn)", 109],
  ["O=C(Nc1ccc(F)cc1)N1CCc2ccc(F)cc2C1c1ccc(C(F)(F)F)cc1 (stereo not drawn)", 34],
  ["O=C(Nc1ccc(F)cc1)N1CCc2cc(F)ccc2C1c1ccc(C(F)(F)F)cc1 (stereo not drawn)", 40]
]}

a. O=C(Nc1ccccc1)N1CCc2sccc2C1c1ccc(C(F)(F)F)cc1 (stereo not drawn)
b. O=C(Nc1ccc(F)cc1)N1CCc2nc[nH]c2C1c1ccc(C(F)(F)F)cc1 (stereo not drawn)
c. Cn1cnc2c1CCN(C(=O)Nc1ccc(F)cc1)C2c1ccc(C(F)(F)F)cc1 (stereo not drawn)
d. O=C(Nc1ccc(F)cc1)N1CCn2cccc2C1c1ccc(C(F)(F)F)cc1 (stereo not drawn)
e. O=C(Nc1ccccc1F)N1CCc2sccc2C1c1ccc(C(F)(F)F)cc1 (stereo not drawn)
Order field: microsomal CLint at 1 µM | Direction: descending (largest first) Answer by writing out the labels in the requested order.
e, a, d, c, b
(e: 342 µL/min/mg, a: 211 µL/min/mg, d: 123 µL/min/mg, c: 36 µL/min/mg, b: 23 µL/min/mg)
